Test system: NCI-H1975
Experiment: relative viability (nuclei count vs DMSO), 5 days (fraction); higher = more cells survive
Conditions: first compound 0.253 µM
measuredParameter: relative viability

molecule: O=c1[nH]c2ccccc2n1C1CCN(CCCC(c2ccc(F)cc2)c2ccc(F)cc2)CC1 [Pimozide] + NC(=O)Nc1cc(-c2cccc(F)c2)sc1C(=O)N[C@H]1CCCNC1 [AZD7762] (partner 0.2 µM)
measuredParameter: relative viability
observedResult: 0.635

molecule: O=c1[nH]c2ccccc2n1C1CCN(CCCC(c2ccc(F)cc2)c2ccc(F)cc2)CC1 [Pimozide] + C[C@]1(O)C[C@@H](c2nc(-c3ccc4ccc(-c5ccccc5)nc4c3)c3c(N)nccn32)C1 [Linsitinib] (partner 1 µM)
measuredParameter: relative viability
observedResult: 1.04

molecule: O=c1[nH]c2ccccc2n1C1CCN(CCCC(c2ccc(F)cc2)c2ccc(F)cc2)CC1 [Pimozide] + O=C(CCCCCCC(=O)Nc1ccccc1)NO [Vorinostat] (partner 1 µM)
measuredParameter: relative viability
observedResult: 0.676

molecule: Cc1cnc(-c2cnc(NCCNc3ccc(C#N)cn3)nc2-c2ccc(Cl)cc2Cl)[nH]1 + COc1cccc2cc(-c3nc([C@H]4CC[C@H](C(=O)O)CC4)n4ncnc(N)c34)[nH]c12 [OSI-027] (partner 0.5 µM)
measuredParameter: relative viability
observedResult: 0.647

molecule: Cc1cnc(-c2cnc(NCCNc3ccc(C#N)cn3)nc2-c2ccc(Cl)cc2Cl)[nH]1 + O=C(CCCCCCC(=O)Nc1ccccc1)NO [Vorinostat] (partner 1 µM)
measuredParameter: relative viability
observedResult: 0.699

molecule: O=c1[nH]c2ccccc2n1C1CCN(CCCC(c2ccc(F)cc2)c2ccc(F)cc2)CC1 [Pimozide] + COc1cccc2cc(-c3nc([C@H]4CC[C@H](C(=O)O)CC4)n4ncnc(N)c34)[nH]c12 [OSI-027] (partner 0.5 µM)
measuredParameter: relative viability
observedResult: 0.695

====

System: LU99A
Assay: relative viability (nuclei count vs DMSO), 5 days (fraction); higher = more cells survive
Details: first compound 0.05 µM
Reported relative viability values for the following molecules.
measuredParameter: relative viability

molecule: Nc1ccn([C@@H]2O[C@H](CO)[C@@H](O)[C@@H]2O)c(=O)n1 [Cytarabine] + O=C(c1cc(Cc2n[nH]c(=O)c3ccccc23)ccc1F)N1CCN(C(=O)C2CC2)CC1 [Olaparib] (partner 8 µM)
systemName: LU99A
observedResult: 0.24

molecule: Nc1ccn([C@@H]2O[C@H](CO)[C@@H](O)[C@@H]2O)c(=O)n1 [Cytarabine] + COc1cc2c(Oc3ccc(NC(=O)C4(C(=O)Nc5ccc(F)cc5)CC4)cc3F)ccnc2cc1OCCCN1CCOCC1 [Foretinib] (partner 0.25 µM)
systemName: LU99A
observedResult: 0.809

molecule: COc1cc2nccc(Oc3ccc(NC(=O)Nc4cc(C)on4)c(Cl)c3)c2cc1OC [Tivozanib] + C[C@]1(O)C[C@@H](c2nc(-c3ccc4ccc(-c5ccccc5)nc4c3)c3c(N)nccn32)C1 [Linsitinib] (partner 1 µM)
systemName: LU99A
observedResult: 0.581

molecule: COc1cc2nccc(Oc3ccc(NC(=O)Nc4cc(C)on4)c(Cl)c3)c2cc1OC [Tivozanib] + CC(=O)Nc1cccc(-n2c(=O)n(C3CC3)c(=O)c3c(Nc4ccc(I)cc4F)n(C)c(=O)c(C)c32)c1 [Trametinib] (partner 0.02 µM)
systemName: LU99A
observedResult: 0.61

molecule: COc1cc2nccc(Oc3ccc(NC(=O)Nc4cc(C)on4)c(Cl)c3)c2cc1OC [Tivozanib] + COc1cc2c(Oc3ccc(NC(=O)C4(C(=O)Nc5ccc(F)cc5)CC4)cc3F)ccnc2cc1OCCCN1CCOCC1 [Foretinib] (partner 0.25 µM)
systemName: LU99A
observedResult: 0.836

molecule: Nc1ccn([C@@H]2O[C@H](CO)[C@@H](O)[C@@H]2O)c(=O)n1 [Cytarabine] + NC(=O)Nc1cc(-c2cccc(F)c2)sc1C(=O)N[C@H]1CCCNC1 [AZD7762] (partner 0.2 µM)
systemName: LU99A
observedResult: 0.305

molecule: COc1cc2nccc(Oc3ccc(NC(=O)Nc4cc(C)on4)c(Cl)c3)c2cc1OC [Tivozanib] + Nc1ncn([C@H]2C[C@H](O)[C@@H](CO)O2)c(=O)n1 [Decitabine] (partner 2 µM)
systemName: LU99A
observedResult: 0.894

molecule: Nc1ccn([C@@H]2O[C@H](CO)[C@@H](O)[C@@H]2O)c(=O)n1 [Cytarabine] + CS(=O)(=O)N1CCN(Cc2cc3nc(-c4cccc5[nH]ncc45)nc(N4CCOCC4)c3s2)CC1 [Pictilisib] (partner 1 µM)
systemName: LU99A
observedResult: 0.282

molecule: Nc1ccn([C@@H]2O[C@H](CO)[C@@H](O)[C@@H]2O)c(=O)n1 [Cytarabine] + COc1cccc2cc(-c3nc([C@H]4CC[C@H](C(=O)O)CC4)n4ncnc(N)c34)[nH]c12 [OSI-027] (partner 0.5 µM)
systemName: LU99A
observedResult: 0.288

====

The entries below come with measured relative viability values attached.
Test system: HCC-15
Test: relative viability (nuclei count vs DMSO), 5 days (fraction); higher = more cells survive
Conditions: first compound 0.01581 µM

molecule: COc1cc2nccc(Oc3ccc(NC(=O)Nc4cc(C)on4)c(Cl)c3)c2cc1OC [Tivozanib] + Cc1nc(NC(=O)N2CCC[C@H]2C(N)=O)sc1-c1ccnc(C(C)(C)C(F)(F)F)c1 [Alpelisib] (partner 2 µM)
systemName: HCC-15
relative viability: 0.839
//
molecule: Nc1ccn([C@@H]2O[C@H](CO)[C@@H](O)[C@@H]2O)c(=O)n1 [Cytarabine] + Nc1nc2[nH]cc(CCc3ccc(C(=O)N[C@@H](CCC(=O)O)C(=O)O)cc3)c2c(=O)[nH]1 [Pemetrexed] (partner 0.2 µM)
systemName: HCC-15
relative viability: 0.215
//
molecule: COc1cc2nccc(Oc3ccc(NC(=O)Nc4cc(C)on4)c(Cl)c3)c2cc1OC [Tivozanib] + CC(=O)c1c(C)c2cnc(Nc3ccc(N4CCNCC4)cn3)nc2n(C2CCCC2)c1=O [Palbociclib] (partner 0.5 µM)
systemName: HCC-15
relative viability: 0.768
//
molecule: Nc1ccn([C@@H]2O[C@H](CO)[C@@H](O)[C@@H]2O)c(=O)n1 [Cytarabine] + C[C@@H](Oc1cc(-c2cnn(C3CCNCC3)c2)cnc1N)c1c(Cl)ccc(F)c1Cl [Crizotinib] (partner 1 µM)
systemName: HCC-15
relative viability: 0.895

====

Tested on: NCI-H322M
Test: relative viability (nuclei count vs DMSO), 5 days (fraction); higher = more cells survive
Settings: first compound 500 µM
Labelling: relative viability reported below 0.06 becomes fulfilled; at or above becomes not fulfilled.

molecule: O=C(O)CCCCC(CCSCc1ccccc1)SCc1ccccc1 (stereo unspecified) [CPI-613] + Cc1nc(NC(=O)N2CCC[C@H]2C(N)=O)sc1-c1ccnc(C(C)(C)C(F)(F)F)c1 [Alpelisib] (partner 2 µM)
assignedClass: not fulfilled
--
molecule: O=C(O)CCCCC(CCSCc1ccccc1)SCc1ccccc1 (stereo unspecified) [CPI-613] + Cc1nc(Nc2ncc(C(=O)Nc3c(C)cccc3Cl)s2)cc(N2CCN(CCO)CC2)n1 [Dasatinib] (partner 0.075 µM)
assignedClass: fulfilled
--
molecule: O=C(O)CCCCC(CCSCc1ccccc1)SCc1ccccc1 (stereo unspecified) [CPI-613] + Cc1cc(Nc2cc(N3CCN(C)CC3)nc(Sc3ccc(NC(=O)C4CC4)cc3)n2)n[nH]1 [Tozasertib] (partner 0.1 µM)
assignedClass: not fulfilled
--
molecule: O=C(O)CCCCC(CCSCc1ccccc1)SCc1ccccc1 (stereo unspecified) [CPI-613] + N=C(N)NC(=N)NCCc1ccccc1 [Phenformin] (partner 250 µM)
assignedClass: fulfilled
--
molecule: O=C(O)CCCCC(CCSCc1ccccc1)SCc1ccccc1 (stereo unspecified) [CPI-613] + CC(C)C[C@H](NC(=O)[C@H](Cc1ccccc1)NC(=O)c1cnccn1)B(O)O [Bortezomib] (partner 0.002 µM)
assignedClass: not fulfilled

====

System: NCI-H2126
Assay: relative viability (nuclei count vs DMSO), 5 days (fraction); higher = more cells survive
Conditions: first compound 0.005 µM
Decide using relative viability alone. Strictly below 0.6: criterion met. Equal to or above 0.6: criterion not met.

compound: COc1cc2nccc(Oc3ccc(NC(=O)Nc4cc(C)on4)c(Cl)c3)c2cc1OC [Tivozanib] + CC1(C)CCC(c2ccc(Cl)cc2)=C(CN2CCN(c3ccc(C(=O)NS(=O)(=O)c4ccc(N[C@H](CCN5CCOCC5)CSc5ccccc5)c(S(=O)(=O)C(F)(F)F)c4)cc3)CC2)C1 [Navitoclax] (partner 0.5 µM)
assignedClass: criterion not met

compound: Nc1ccn([C@@H]2O[C@H](CO)[C@@H](O)[C@@H]2O)c(=O)n1 [Cytarabine] + CC(=O)c1c(C)c2cnc(Nc3ccc(N4CCNCC4)cn3)nc2n(C2CCCC2)c1=O [Palbociclib] (partner 0.5 µM)
assignedClass: criterion met

compound: Nc1ccn([C@@H]2O[C@H](CO)[C@@H](O)[C@@H]2O)c(=O)n1 [Cytarabine] + COc1cccc2cc(-c3nc([C@H]4CC[C@H](C(=O)O)CC4)n4ncnc(N)c34)[nH]c12 [OSI-027] (partner 0.5 µM)
assignedClass: criterion not met

compound: COc1cc2nccc(Oc3ccc(NC(=O)Nc4cc(C)on4)c(Cl)c3)c2cc1OC [Tivozanib] + C[C@]1(O)C[C@@H](c2nc(-c3ccc4ccc(-c5ccccc5)nc4c3)c3c(N)nccn32)C1 [Linsitinib] (partner 1 µM)
assignedClass: criterion not met

compound: Nc1ccn([C@@H]2O[C@H](CO)[C@@H](O)[C@@H]2O)c(=O)n1 [Cytarabine] + Cc1nc(Nc2ncc(C(=O)Nc3c(C)cccc3Cl)s2)cc(N2CCN(CCO)CC2)n1 [Dasatinib] (partner 0.075 µM)
assignedClass: criterion met

compound: Nc1ccn([C@@H]2O[C@H](CO)[C@@H](O)[C@@H]2O)c(=O)n1 [Cytarabine] + NC(=O)Nc1cc(-c2cccc(F)c2)sc1C(=O)N[C@H]1CCCNC1 [AZD7762] (partner 0.2 µM)
assignedClass: criterion not met
